Test system: NO production in IFN-γ/LPS-stimulated RAW 264.7 macrophages
procedureText: NO suppression (Griess nitrite determination) in IFN-γ/LPS-stimulated RAW 264.7 macrophages
Format: cell-based, murine
studyConditions: Mus musculus, RAW264.7, IFN-γ/LPS-stimulated RAW 264.7 cells; read-out: NO Inhibition IC50 (µM) ± S.E.M
resultType: IC50 (µM)

See these solved cases before continuing.
# input I am curious: what IC50 value has been reported for COc1ccc(OC)c(/C=C/C(O)=C/C(=O)c2ccccc2O)c1 ?
# output 28.4

# input # repeat for COc1ccc(C(=O)/C=C(O)/C=C/c2ccccc2OC)c(O)c1
# output 39

# input # repeat for COc1ccc(O)c(C(=O)/C=C(O)/C=C/c2ccco2)c1
# output 71.5

# input # repeat for COc1ccc(O)c(C(=O)/C=C(O)/C=C/c2cc(OC)c(OC)c(OC)c2)c1
# output 18.4

I. COc1ccc(C(=O)/C=C(O)/C=C/c2cc(OC)c(OC)c(OC)c2)c(O)c1
II. COc1cc(/C=C/C(O)=C/C(=O)c2cc(Cl)ccc2O)cc(OC)c1OC
# input Quick one: lower IC50, I or II ? Return value: the label identifying the chosen record.
# output II
